Each recorded value in this set is attributed to ChEMBL document CHEMBL1135457.

So I've got a bunch of compounds here, and I need their inhibition values.
- test-target: Estrogen receptor beta (Homo sapiens, UniProt Q92731)
- Sequence (Q92731 whole entry): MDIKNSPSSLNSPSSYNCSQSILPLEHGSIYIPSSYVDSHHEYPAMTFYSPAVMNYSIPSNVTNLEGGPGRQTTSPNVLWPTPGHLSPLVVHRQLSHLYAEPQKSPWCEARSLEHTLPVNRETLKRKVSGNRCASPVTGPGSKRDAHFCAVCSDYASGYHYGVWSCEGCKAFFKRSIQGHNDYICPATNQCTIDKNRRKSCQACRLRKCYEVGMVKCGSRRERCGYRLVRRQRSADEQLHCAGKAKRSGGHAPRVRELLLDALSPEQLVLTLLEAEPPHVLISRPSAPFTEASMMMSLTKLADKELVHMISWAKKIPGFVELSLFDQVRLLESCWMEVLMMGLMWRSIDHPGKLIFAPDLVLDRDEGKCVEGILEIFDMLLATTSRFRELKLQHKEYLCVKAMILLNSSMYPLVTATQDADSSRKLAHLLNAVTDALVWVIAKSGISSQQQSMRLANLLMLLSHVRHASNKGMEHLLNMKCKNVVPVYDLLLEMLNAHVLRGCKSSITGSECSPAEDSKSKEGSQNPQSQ
- experiment-description: Displacement of radioligand from human Estrogen receptor beta, percent inhibition at 10 uM
Give bare numbers, in %.

- compound: "CC#C[C@@]1(O)CC[C@@]2(Cc3ccccc3)c3ccc(O)cc3CC[C@@H]2C1"
  test-target: "Estrogen receptor beta (Homo sapiens, UniProt Q92731)"
  inhibition (%): 57
- compound: "O=C1C=C2CCc3cc(O)ccc3C2(Cc2ccccc2)CC1 (single isomer, unassigned; form 2)"
  test-target: "Estrogen receptor beta (Homo sapiens, UniProt Q92731)"
  inhibition (%): 39

Each compound below has a reported value. Please supply its inhibition.
1. Oc1ccc2c(c1)CC[C@@H]1C[C@@](O)(C#CCl)CC[C@@]21Cc1ccccc1
2. O=C1CC[C@@]2(Cc3ccccc3)c3ccc(O)cc3CC[C@@H]2C1
3. O=C1C=C2CCc3cc(O)ccc3C2(Cc2ccccc2)CC1 (single isomer, unassigned; form 1)

Reply:
75
54
24

Form field inhibition, entry CC#C[C@]1(O)CC[C@H]2[C@@H]3CCC4=CC(=O)CCC4=C3[C@@H](c3ccc(N(C)C)cc3)C[C@@]21C : 92
